Reported Ratio Ki values are given for each entry in this list.
Measurement Protocol: Selectivity ratio of Ki for human alpha-carbonic anhydrase 2 to Ki for Brucella suis beta-carbonic anhydrase 2

Structure Notation: NS(=O)(=O)c1ccc(CC/N=C/c2ccc(S(=O)(=O)O)o2)cc1
Ratio Ki: 18.1
--
Structure Notation: NS(=O)(=O)c1ccc(/N=C/c2ccc(-c3ccccc3)cc2)c(F)c1
Ratio Ki: 3.1
--
Structure Notation: NS(=O)(=O)c1ccc(CC/N=C/c2c[nH]c3ccc(Br)cc23)cc1
Ratio Ki: 243
--
Structure Notation: COc1cc([N+](=O)[O-])ccc1/C=N/CCc1ccc(S(N)(=O)=O)cc1
Ratio Ki: 1
--
Structure Notation: NS(=O)(=O)c1ccc(CC/N=C/c2ccc(-c3ccccc3)cc2)cc1
Ratio Ki: 46.5
--
Structure Notation: NS(=O)(=O)c1ccc(/N=C/c2ccccc2)c(F)c1
Ratio Ki: 307
--
Structure Notation: NS(=O)(=O)c1ccc(CC/N=C/c2c(F)c(F)cc(F)c2F)cc1
Ratio Ki: 255
--
Structure Notation: NS(=O)(=O)c1ccc(/N=C/c2ccc(Br)cc2O)cc1
Ratio Ki: 29.9
--
Structure Notation: NS(=O)(=O)c1ccc(CC/N=C/c2ccc(-c3ccccn3)cc2)cc1
Ratio Ki: 16.3
--
Structure Notation: COc1ccc(/C=N/CCc2ccc(S(N)(=O)=O)cc2)c(O)c1
Ratio Ki: 31.8
--
Structure Notation: CSc1ccc(/C=N/CCc2ccc(S(N)(=O)=O)cc2)cc1
Ratio Ki: 24.7

---

Reported pKi values are given for each entry in this list.
Measurement Protocol: Inhibition of Brucella suis beta-carbonic anhydrase 1 incubated for 15 mins prior to testing by stopped-flow CO2 hydration assay
pKi: −log10 of the molar value.
Measured Quantity: pKi

Structure Notation: NS(=O)(=O)c1ccc(/N=C/c2ccccc2)c(F)c1
Quantitative Readout: 7.94
--
Structure Notation: NS(=O)(=O)c1ccc(CC/N=C/c2ccc(-c3ccccc3)cc2)cc1
Quantitative Readout: 7.22
--
Structure Notation: N#Cc1ccc(/C=N/CCc2ccc(S(N)(=O)=O)cc2)cc1
Quantitative Readout: 7.07
--
Structure Notation: NS(=O)(=O)c1ccc(CC/N=C/c2c[nH]c3ccc(Br)cc23)cc1
Quantitative Readout: 7.60
--
Structure Notation: NS(=O)(=O)c1ccc(CC/N=C/c2cccc(Br)c2O)cc1
Quantitative Readout: 7.35
--
Structure Notation: NS(=O)(=O)c1ccc(/N=C/c2ccc(Br)cc2O)cc1
Quantitative Readout: 6.20

---

Measurement Protocol: Selectivity ratio of Ki for human alpha-carbonic anhydrase 1 to Ki for Brucella suis beta-carbonic anhydrase 2
Measured Quantity: Ratio Ki

Structure Notation: COc1cc([N+](=O)[O-])ccc1/C=N/CCc1ccc(S(N)(=O)=O)cc1
Quantitative Readout: 1.3
--
Structure Notation: COc1ccc(/C=N/CCc2ccc(S(N)(=O)=O)cc2)c(O)c1
Quantitative Readout: 201
--
Structure Notation: NS(=O)(=O)c1ccc(CC/N=C/c2c(F)c(F)cc(F)c2F)cc1
Quantitative Readout: 1030
--
Structure Notation: NS(=O)(=O)c1ccc(/N=C/c2ccc(Br)cc2O)cc1
Quantitative Readout: 183
--
Structure Notation: NS(=O)(=O)c1ccc(/N=C/c2ccco2)c(F)c1
Quantitative Readout: 1.5
--
Structure Notation: NS(=O)(=O)c1ccc(CC/N=C/c2c[nH]c3ccc(Br)cc23)cc1
Quantitative Readout: 714
--
Structure Notation: NS(=O)(=O)c1ccc(CC/N=C/c2ccc(S(=O)(=O)O)o2)cc1
Quantitative Readout: 111
--
Structure Notation: NS(=O)(=O)c1ccc(CC/N=C/c2ccc(Br)cc2O)cc1
Quantitative Readout: 132
--
Structure Notation: NS(=O)(=O)c1ccc(CC/N=C/c2cccc(Br)c2O)cc1
Quantitative Readout: 220
--
Structure Notation: NS(=O)(=O)c1ccc(/N=C/c2csc3ccccc23)cc1
Quantitative Readout: 14.8
--
Structure Notation: NS(=O)(=O)c1ccc(/N=C/c2ccc(-c3ccccn3)cc2)cc1
Quantitative Readout: 17.1
--
Structure Notation: NS(=O)(=O)c1ccc(/N=C/c2ccccc2)c(F)c1
Quantitative Readout: 216
--
Structure Notation: NS(=O)(=O)c1ccc(/N=C/c2ccc(-c3ccccc3)cc2)c(F)c1
Quantitative Readout: 9.4
--
Structure Notation: N#Cc1ccc(/C=N/CCc2ccc(S(N)(=O)=O)cc2)cc1
Quantitative Readout: 662
--
Structure Notation: CSc1ccc(/C=N/CCc2ccc(S(N)(=O)=O)cc2)cc1
Quantitative Readout: 102
--
Structure Notation: NS(=O)(=O)c1ccc(CC/N=C/c2ccc(-c3ccccc3)cc2)cc1
Quantitative Readout: 465
--
Structure Notation: NS(=O)(=O)c1ccc(CC/N=C/c2ccc(-c3ccccn3)cc2)cc1
Quantitative Readout: 54.2

---

Measurement Protocol: Selectivity ratio of Ki for human alpha-carbonic anhydrase 2 to Ki for Brucella suis beta-carbonic anhydrase 2
Measured Quantity: Ratio Ki

Structure Notation: NS(=O)(=O)c1ccc(/N=C/c2ccco2)c(F)c1
Value Qualifier: =
Quantitative Readout: 0.4
--
Structure Notation: N#Cc1ccc(/C=N/CCc2ccc(S(N)(=O)=O)cc2)cc1
Value Qualifier: =
Quantitative Readout: 215
--
Structure Notation: NS(=O)(=O)c1ccc(/N=C/c2csc3ccccc23)cc1
Value Qualifier: =
Quantitative Readout: 3.2
--
Structure Notation: NS(=O)(=O)c1ccc(CC/N=C/c2ccc(Br)cc2O)cc1
Value Qualifier: =
Quantitative Readout: 20.8
--
Structure Notation: NS(=O)(=O)c1ccc(CC/N=C/c2cccc(Br)c2O)cc1
Value Qualifier: >
Quantitative Readout: 412
--
Structure Notation: NS(=O)(=O)c1ccc(/N=C/c2ccc(-c3ccccn3)cc2)cc1
Value Qualifier: =
Quantitative Readout: 2.7

---

Measurement Protocol: Inhibition of Brucella suis beta-carbonic anhydrase 1 incubated for 15 mins prior to testing by stopped-flow CO2 hydration assay

Structure Notation: COc1ccc(/C=N/CCc2ccc(S(N)(=O)=O)cc2)c(O)c1
Ki (µM): 0.11

Structure Notation: NS(=O)(=O)c1ccc(CC/N=C/c2ccc(-c3ccccn3)cc2)cc1
Ki (µM): 0.529

Structure Notation: NS(=O)(=O)c1ccc(/N=C/c2ccc(-c3ccccc3)cc2)c(F)c1
Ki (µM): 0.523

Structure Notation: NS(=O)(=O)c1ccc(/N=C/c2csc3ccccc23)cc1
Ki (µM): 1.03

Structure Notation: COc1cc([N+](=O)[O-])ccc1/C=N/CCc1ccc(S(N)(=O)=O)cc1
Ki (µM): 0.33

Structure Notation: NS(=O)(=O)c1ccc(/N=C/c2ccc(-c3ccccn3)cc2)cc1
Ki (µM): 0.94

---

Measurement Protocol: Inhibition of Leishmania donovani chagasi beta-carbonic anhydrase incubated for 15 mins prior to testing by stopped-flow CO2 hydration assay
Measured Quantity: Ki (nM)

Structure Notation: N#Cc1ccc(/C=N/CCc2ccc(S(N)(=O)=O)cc2)cc1
Value Qualifier: =
Quantitative Readout: 1400
//
Structure Notation: CSc1ccc(/C=N/CCc2ccc(S(N)(=O)=O)cc2)cc1
Value Qualifier: =
Quantitative Readout: 216
//
Structure Notation: NS(=O)(=O)c1ccc(CC/N=C/c2ccc(Br)cc2O)cc1
Value Qualifier: =
Quantitative Readout: 1980
//
Structure Notation: NS(=O)(=O)c1ccc(/N=C/c2ccccc2)c(F)c1
Value Qualifier: >
Quantitative Readout: 2500
//
Structure Notation: NS(=O)(=O)c1ccc(/N=C/c2ccco2)c(F)c1
Value Qualifier: =
Quantitative Readout: 168
//
Structure Notation: NS(=O)(=O)c1ccc(/N=C/c2ccc(Br)cc2O)cc1
Value Qualifier: >
Quantitative Readout: 2500
//
Structure Notation: NS(=O)(=O)c1ccc(CC/N=C/c2ccc(-c3ccccn3)cc2)cc1
Value Qualifier: =
Quantitative Readout: 1240
//
Structure Notation: NS(=O)(=O)c1ccc(/N=C/c2ccc(-c3ccccc3)cc2)c(F)c1
Value Qualifier: =
Quantitative Readout: 155
//
Structure Notation: NS(=O)(=O)c1ccc(CC/N=C/c2ccc(-c3ccccc3)cc2)cc1
Value Qualifier: =
Quantitative Readout: 542
//
Structure Notation: COc1ccc(/C=N/CCc2ccc(S(N)(=O)=O)cc2)c(O)c1
Value Qualifier: =
Quantitative Readout: 190
//
Structure Notation: NS(=O)(=O)c1ccc(CC/N=C/c2c[nH]c3ccc(Br)cc23)cc1
Value Qualifier: =
Quantitative Readout: 2030

---

Measurement Protocol: Inhibition of Brucella suis beta-carbonic anhydrase 2 incubated for 15 mins prior to testing by stopped-flow CO2 hydration assay
Ki less than 20 nM is Satisfied; Ki greater than or equal to 20 nM is Not satisfied.

Structure Notation: NS(=O)(=O)c1ccc(/N=C/c2ccco2)c(F)c1
Category: Not satisfied
//
Structure Notation: NS(=O)(=O)c1ccc(CC/N=C/c2ccc(-c3ccccc3)cc2)cc1
Category: Satisfied
//
Structure Notation: NS(=O)(=O)c1ccc(CC/N=C/c2cccc(Br)c2O)cc1
Category: Not satisfied
//
Structure Notation: NS(=O)(=O)c1ccc(/N=C/c2ccc(-c3ccccc3)cc2)c(F)c1
Category: Not satisfied
//
Structure Notation: NS(=O)(=O)c1ccc(CC/N=C/c2ccc(-c3ccccn3)cc2)cc1
Category: Not satisfied
//
Structure Notation: NS(=O)(=O)c1ccc(CC/N=C/c2ccc(S(=O)(=O)O)o2)cc1
Category: Not satisfied
//
Structure Notation: NS(=O)(=O)c1ccc(/N=C/c2ccc(-c3ccccn3)cc2)cc1
Category: Not satisfied
//
Structure Notation: COc1cc([N+](=O)[O-])ccc1/C=N/CCc1ccc(S(N)(=O)=O)cc1
Category: Not satisfied
//
Structure Notation: NS(=O)(=O)c1ccc(/N=C/c2ccc(Br)cc2O)cc1
Category: Not satisfied
//
Structure Notation: N#Cc1ccc(/C=N/CCc2ccc(S(N)(=O)=O)cc2)cc1
Category: Satisfied
//
Structure Notation: NS(=O)(=O)c1ccc(/N=C/c2csc3ccccc23)cc1
Category: Not satisfied
